This section presents molecules with their documented log10(IC50) values.
# target_under_test: CB1 (mutant) (Homo sapiens)
# measurement_protocol: R-SAT functional receptor assay, CB1 (mutant, truncated after amino acid 417)
# Assay type: cell-based
# test_settings: Appendix A; R-SAT CB1; receptor form (mutant or wild-type) not stated; read-out: pIC50 (converted)
Use the decimal logarithm of IC50 (nM).

A selection of reference data follows.
>  <molecule>
CC(CNC(=O)c1ccc2c(c1)N=C(N1CCCCC1)c1cc(F)ccc1S2)c1ccccc1 (centres unmarked) [drawing 1171]

>  <target_under_test>
CB1 (mutant) (Homo sapiens)

>  <log10(IC50)>
1.60

$$$$
>  <molecule>
CCCCNC(=O)c1ccc2c(c1)N=C(c1ccc(OC)cc1)c1ccccc1S2 [drawing 887]

>  <target_under_test>
CB1 (mutant) (Homo sapiens)

>  <log10(IC50)>
1.20

$$$$
>  <molecule>
O=C(NCCCc1ccccc1)c1ccc2c(c1)N=C(c1ccccc1)c1ccccc1S2 [drawing 617]

>  <target_under_test>
CB1 (mutant) (Homo sapiens)

>  <log10(IC50)>
0.60

$$$$
>  <molecule>
O=C(NNC(O)c1ccc2c(c1)N=C(c1cccc(Br)c1)c1ccccc1S2)c1ccccc1 (centres unmarked)

>  <target_under_test>
CB1 (mutant) (Homo sapiens)

>  <log10(IC50)>
2.00

$$$$
>  <molecule>
O=C(NCc1ccc(Cl)cc1Cl)c1ccc2c(c1)N=C(c1ccccc1)c1ccccc1S2 [drawing 1167]

>  <target_under_test>
CB1 (mutant) (Homo sapiens)

>  <log10(IC50)>
1.60

$$$$
>  <molecule>
Cc1ccc(N2CCN(C(=O)c3ccc4c(c3)N=C(c3ccc(Cl)cc3)c3ccccc3S4)CC2)c(C)c1 [drawing 970]

>  <target_under_test>
CB1 (mutant) (Homo sapiens)

>  <log10(IC50)>
2.50

$$$$

Input: Can you look up the measured log10(IC50) of Cc1csc(CNC(=O)c2ccc3c(c2)N=C(c2ccc(Cl)s2)c2ccccc2S3)c1 [drawing 655] for me?
Output: 0.80

Input: Can you look up the measured log10(IC50) of CCCCNC(=O)c1ccc2c(c1)N=C(c1ccc(Cl)cn1)c1ccccc1S2 [drawing 813] for me?
Output: 1.00

Input: Can you look up the measured log10(IC50) of O=C(NC1CCCC1)c1ccc2c(c1)N=C(c1ccc(Cl)cc1)c1ccccc1S2 [drawing 782] for me?
Output: 2.00

Input: Can you look up the measured log10(IC50) of CCCC1=Nc2cc(C(=O)NCCN(CC)c3ccccc3)ccc2Sc2ccccc21 [drawing 885] for me?
Output: 1.20

Input: Can you look up the measured log10(IC50) of NS(=O)(=O)c1ccc(CNC(=O)c2ccc3c(c2)N=C(c2ccc(Cl)cc2)c2ccccc2S3)cc1 [drawing 746] for me?
Output: 1.90

Input: Can you look up the measured log10(IC50) of C[C@@H]1CCC[C@H](C)N1NC(=O)c1ccc2c(c1)N=C(c1ccccc1F)c1ccccc1S2 [drawing 1149] for me?
Output: 1.60

Input: Can you look up the measured log10(IC50) of CCCC1=Nc2cc(C(=O)NCCCN3CCN(c4cc(C)ccc4C)CC3)ccc2Sc2ccccc21 for me?
Output: 2.50

Input: Can you look up the measured log10(IC50) of O=C(NCc1cccc(Cl)c1)c1ccc2c(c1)N=C(c1ccccc1)c1ccccc1S2 [drawing 899] for me?
Output: 1.20

Input: Can you look up the measured log10(IC50) of O=C(NCc1ccccc1Br)c1ccc2c(c1)N=C(N1CCCCC1)c1ccccc1S2 [drawing 890] for me?
Output: 2.30

Input: Can you look up the measured log10(IC50) of O=C(NCCc1ccccn1)c1ccc2c(c1)N=C(c1cccc(F)c1)c1ccccc1S2 for me?
Output: 1.70

Input: Can you look up the measured log10(IC50) of O=C(NCc1ccccc1Br)c1ccc2c(c1)N=C(c1ccccc1F)c1ccccc1S2 [drawing 602] for me?
Output: 1.70

* * *

This section presents compounds with their documented microsomal CLint at 1 μM values.
# measurement_protocol: Clearance study, liver microsomes (human)
# test_settings: pH 7.4
Output spec: scalar in µL/min/mg, unitless text.

A selection of reference data follows.
>  <compound>
Cc1ccc(CNC(=O)c2ccc3c(c2)N=C(c2ccc(Cl)s2)c2ccccc2S3)o1 [drawing 1697]

>  <uom>
µL/min/mg

>  <microsomal CLint at 1 μM>
30

$$$$
>  <compound>
O=C(NCc1cccs1)c1ccc2c(c1)N=C(c1cccc(Cl)c1)c1ccccc1S2 [drawing 1733]

>  <uom>
µL/min/mg

>  <microsomal CLint at 1 μM>
32

$$$$
>  <compound>
CC(C)CNC(=O)c1ccc2c(c1)N=C(c1ccc(Cl)c(Cl)c1)c1ccccc1S2 [drawing 1671]

>  <uom>
µL/min/mg

>  <microsomal CLint at 1 μM>
4

$$$$
>  <compound>
C[C@@H]1CCC[C@H](C)N1NC(=O)c1ccc2c(c1)N=C(c1cccc(F)c1)c1ccccc1S2 [drawing 1758]

>  <uom>
µL/min/mg

>  <microsomal CLint at 1 μM>
513

$$$$
>  <compound>
CCCCNC(=O)c1ccc2c(c1)N=C(c1cccc(Cl)c1)c1cc(Cl)ccc1S2 [drawing 1750]

>  <uom>
µL/min/mg

>  <microsomal CLint at 1 μM>
13

$$$$
>  <compound>
CCCCNC(=O)c1ccc2c(c1)N=C(c1cccc(Cl)c1)c1cc(F)ccc1S2 [drawing 1682]

>  <uom>
µL/min/mg

>  <microsomal CLint at 1 μM>
16

$$$$
>  <compound>
O=C(NCc1ccccc1Cl)c1ccc2c(c1)N=C(c1cccc(Cl)c1)c1ccccc1S2 [drawing 1674]

>  <uom>
µL/min/mg

>  <microsomal CLint at 1 μM>
28

$$$$
>  <compound>
O=C(NCCc1ccc(Cl)cc1)c1ccc2c(c1)N=C(N1CCC(F)CC1)c1ccccc1S2 [drawing 1734]

>  <uom>
µL/min/mg

>  <microsomal CLint at 1 μM>
476

$$$$

Input: Can you look up the measured microsomal CLint at 1 μM of CCCCNC(=O)c1ccc2c(c1)N=C(c1ccc(Cl)cn1)c1ccccc1S2 [drawing 1704] for me?
Output: 70

Input: Can you look up the measured microsomal CLint at 1 μM of O=C(NCc1ccco1)c1ccc2c(c1)N=C(c1ccc(Cl)c(Cl)c1)c1ccccc1S2 [drawing 1666] for me?
Output: 21

* * *

This section presents molecules with their documented Emax values.
# target_under_test: CB1 (mutant) (Homo sapiens, UniProt P21554)
# Sequence (P21554 1-417, change not shown): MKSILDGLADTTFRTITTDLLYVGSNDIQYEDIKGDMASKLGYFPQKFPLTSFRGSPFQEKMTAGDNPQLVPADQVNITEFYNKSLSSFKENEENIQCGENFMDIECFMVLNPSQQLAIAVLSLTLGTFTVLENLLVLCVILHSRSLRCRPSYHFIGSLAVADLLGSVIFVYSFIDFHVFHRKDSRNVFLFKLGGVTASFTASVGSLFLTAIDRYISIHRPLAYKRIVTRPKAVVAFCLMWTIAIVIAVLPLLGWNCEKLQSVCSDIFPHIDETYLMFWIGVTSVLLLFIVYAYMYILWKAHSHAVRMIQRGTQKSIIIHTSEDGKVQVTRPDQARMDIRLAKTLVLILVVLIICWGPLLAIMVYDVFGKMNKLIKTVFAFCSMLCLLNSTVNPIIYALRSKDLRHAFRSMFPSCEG
# measurement_protocol: R-SAT functional receptor assay, CB1 (mutant, truncated after amino acid 417)
# Type: cell-based
# test_settings: Appendix A; R-SAT CB1; receptor form not stated; relative to SR141716 (100%); read-out: % Inhibition
Output spec: scalar in %, unitless text.

A selection of reference data follows.
>  <molecule>
COc1ccc(C2=Nc3cc(C(=O)NCc4cccnc4)ccc3Sc3ccccc32)cc1 [drawing 712]

>  <target_under_test>
CB1 (mutant) (Homo sapiens, UniProt P21554)

>  <Emax / %>
106

$$$$
>  <molecule>
Cc1ccc(N2CCN(C(=O)c3ccc4c(c3)N=C(C3CCCCC3)c3ccccc3S4)CC2)c(C)c1 [drawing 896]

>  <target_under_test>
CB1 (mutant) (Homo sapiens, UniProt P21554)

>  <Emax / %>
103

$$$$
>  <molecule>
CCCC1=Nc2cc(C(=O)NCC(OCC)OCC)ccc2Sc2ccccc21

>  <target_under_test>
CB1 (mutant) (Homo sapiens, UniProt P21554)

>  <Emax / %>
107

$$$$
>  <molecule>
O=C(NCc1ccco1)c1ccc2c(c1)N=C(c1ccc(Cl)s1)c1ccccc1S2 [drawing 621]

>  <target_under_test>
CB1 (mutant) (Homo sapiens, UniProt P21554)

>  <Emax / %>
118

$$$$
>  <molecule>
Cc1ccsc1C1=Nc2cc(C(=O)NC3CCCCC3)ccc2Sc2ccccc21 [drawing 572]

>  <target_under_test>
CB1 (mutant) (Homo sapiens, UniProt P21554)

>  <Emax / %>
88

$$$$

Input: Can you look up the measured Emax of COCCNC(=O)c1ccc2c(c1)N=C(c1ncccc1C)c1ccccc1S2 for me?
Output: -6

Input: Can you look up the measured Emax of O=C(NCc1cccnc1)c1ccc2c(c1)N=C(NCc1ccc(Cl)cc1)c1ccccc1S2 for me?
Output: 76

Input: Can you look up the measured Emax of CCCCN(CCCC)CCNC(=O)c1ccc2c(c1)N=C(CCC)c1ccccc1S2 for me?
Output: 109

Input: Can you look up the measured Emax of CC(C)CCNC(=O)c1ccc2c(c1)N=C(c1ccc(F)cc1)c1ccccc1S2 [drawing 771] for me?
Output: 107

* * *

# target_under_test: CB1 (mutant) (Homo sapiens, UniProt P21554)
# measurement_protocol: R-SAT functional receptor assay, CB1 (mutant, truncated after amino acid 417)
# Format: cell-based
# test_settings: Appendix A; R-SAT CB1; receptor form (mutant or wild-type) not stated; read-out: pIC50 (converted)
endpoint_name: log10 IC50 (log10 of the value in nM)
Use the decimal logarithm of IC50 (nM).

>  <molecule>
Cc1csc(CNC(=O)c2ccc3c(c2)N=C(c2cccc(C)n2)c2ccccc2S3)c1 [drawing 561]

>  <target_under_test>
CB1 (mutant) (Homo sapiens, UniProt P21554)

>  <log10 IC50>
0.40

$$$$

Input: Can you look up the measured log10 IC50 of O=C(NN1CCCCC1)c1ccc2c(c1)N=C(c1ccc(Cl)cn1)c1ccccc1S2 [drawing 959] for me?
Output: 1.30

Input: Can you look up the measured log10 IC50 of CCCNC1=Nc2cc(C(=O)NN3CCCCC3)ccc2Sc2ccccc21 for me?
Output: 3.20

Input: Can you look up the measured log10 IC50 of O=C(NCc1cccnc1)c1ccc2c(c1)N=C(c1cccc(Br)c1)c1ccccc1S2 [drawing 895] for me?
Output: 1.20

Input: Can you look up the measured log10 IC50 of CC(C)CNC(=O)c1ccc2c(c1)N=C(c1ccc(Cl)c(Cl)c1)c1ccccc1S2 [drawing 643] for me?
Output: 0.70

Input: Can you look up the measured log10 IC50 of O=C(NC1CCCCNC1=O)c1ccc2c(c1)N=C(c1ccc(Cl)cc1)c1ccccc1S2 (stereo not drawn) for me?
Output: 2.00

Input: Can you look up the measured log10 IC50 of CC(C)CNC(=O)c1ccc2c(c1)N=C(c1ccc(Cl)s1)c1ccc(F)cc1S2 [drawing 703] for me?
Output: 0.90

Input: Can you look up the measured log10 IC50 of CCCC1=Nc2cc(C(=O)NCC3CCCN3CC)ccc2Sc2ccccc21 (stereo not drawn) for me?
Output: 3.20

Input: Can you look up the measured log10 IC50 of O=C(NCc1ccc(Cl)cc1Cl)c1ccc2c(c1)N=C(c1ccccc1F)c1ccccc1S2 [drawing 568] for me?
Output: 1.70

Input: Can you look up the measured log10 IC50 of O=C(NCCc1ccccn1)c1ccc2c(c1)N=C(c1ccc(Cl)c(Cl)c1)c1ccccc1S2 [drawing 1077] for me?
Output: 1.50

Input: Can you look up the measured log10 IC50 of CCCNC(=O)c1ccc2c(c1)N=C(c1cccc(Cl)c1)c1ccccc1S2 [drawing 641] for me?
Output: 0.70
